assayed-target: MAO-B (Homo sapiens, UniProt P27338)
Construct: purchased Sigma-Aldrich
Sequence (P27338 whole entry): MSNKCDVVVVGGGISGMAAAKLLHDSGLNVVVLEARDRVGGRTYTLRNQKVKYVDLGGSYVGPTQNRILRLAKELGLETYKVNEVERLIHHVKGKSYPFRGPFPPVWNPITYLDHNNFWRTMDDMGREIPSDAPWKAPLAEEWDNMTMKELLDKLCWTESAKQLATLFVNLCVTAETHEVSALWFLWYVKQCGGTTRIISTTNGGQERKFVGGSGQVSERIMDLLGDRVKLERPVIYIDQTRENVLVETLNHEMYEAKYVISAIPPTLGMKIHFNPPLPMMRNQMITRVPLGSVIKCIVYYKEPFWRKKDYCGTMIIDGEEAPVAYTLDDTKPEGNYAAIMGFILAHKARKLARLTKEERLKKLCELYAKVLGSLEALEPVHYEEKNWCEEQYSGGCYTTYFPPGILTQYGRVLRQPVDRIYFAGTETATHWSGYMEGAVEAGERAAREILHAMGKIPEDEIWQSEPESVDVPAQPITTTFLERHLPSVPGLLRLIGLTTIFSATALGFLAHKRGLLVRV
assay-details: continuous spectrophotometric MAO-B inhibition assay
Format: biochemical
recorded-conditions: dilution series 50 μM to 1 nM, duplicates; read-out: MAO-B inhibition IC50
Procedure: […] The protocol for continuous spectrophotometric assay (Holt et al., [1997]) was followed in the activity measurements. […] The background signal was measured using multilabel reader (Victor^TM X4, 2030 Multilabel Reader, PerkinElmer, Waltham, MA, USA) at A490 before reaching the total 200 μl volume by adding 20 μl of tyramine to final concentration of 0.5 mM on the plate. […] After adding the substrate, the plates were measured 300 times every 15 s using 1 s exposure time. […]
Under this convention, Criterion met denotes IC50 strictly below 900 nM and Criterion not met denotes IC50 at or above 900 nM.

Example entries and their recorded answers appear below.
Is 900 nM strictly greater than the compound's reported IC50? compound: O=c1oc2ccc(O)cc2cc1-c1ccc(F)cc1 [derivative 24]
Criterion not met

Next: CC(=O)Oc1ccc2cc(-c3ccc(N(C)C)cc3)c(=O)oc2c1 [derivative 19]
Criterion met

Proceed to COc1ccc2cc(-c3cc(F)c(F)cc3F)c(=O)oc2c1 [derivative 16]
Criterion not met

Here is the next item to consider.
Hello, I'm reviewing records and need to know if IC50 of COc1ccc2oc(=O)c(-c3ccc(O)c(F)c3)cc2c1 [derivative 22] is below 900 nM. Could you check?
Criterion met

---

assayed-target: recombinant human HSD1 (Homo sapiens, UniProt P14061)
Construct: made in house; host or cells: Sf9 insect cells
Sequence (P14061 1-328): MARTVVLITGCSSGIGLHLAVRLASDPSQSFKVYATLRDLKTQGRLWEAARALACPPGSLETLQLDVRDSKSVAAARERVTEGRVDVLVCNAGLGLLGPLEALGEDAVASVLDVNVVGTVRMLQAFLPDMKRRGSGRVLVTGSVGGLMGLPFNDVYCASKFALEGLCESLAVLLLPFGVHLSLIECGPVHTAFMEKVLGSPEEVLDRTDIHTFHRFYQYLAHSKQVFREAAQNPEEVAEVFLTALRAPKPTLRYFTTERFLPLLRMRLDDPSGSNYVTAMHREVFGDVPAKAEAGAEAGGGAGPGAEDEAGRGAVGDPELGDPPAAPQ
assay-details: HSD1 inhibition by HPLC with tritium labeled estrone/estradiol
Assay type: biochemical
recorded-conditions: 1 μM
measured-metric: inhibition at 1 µM (%)
State the answer as a number, implicitly in %.

Reported inhibition at 1 µM, molecule COc1ccc(-c2cc3cc(OC(C)=O)ccc3oc2=O)cc1 [derivative 14] : ____
1

Now consider the entry below.
Give its inhibition at 1 µM value. Item: COc1ccc2oc(=O)c(-c3ccc(N(C)C)cc3)cc2c1 [derivative 18]
1
